species: Rattus norvegicus; test: Open TG-GATES - Regimen: Daily Repeat; type: toxicity, organism-based, Sprague-Dawley; parameters: regimen Daily Repeat, gender Male, age 6 weeks; conditions: in vivo, po, 0 mg/kg, […], tissue Blood, route gavage, dose level Control, time 14 day
EXPERIMENTAL READOUT: PT
Respond with a number, then the unit of measure.

O=[N+]([O-])c1ccc(O)c([N+](=O)[O-])c1    11.6 s
C=C(C)[C@H]1Cc2c(ccc3c2O[C@@H]2COc4cc(OC)c(OC)cc4[C@@H]2C3=O)O1    11.3 s
C[C@H]1O[C@H](O[C@H]2[C@H](O)[C@@H](O)[C@@H](O[C@H]3[C@H](O)[C@@H](O)C(O)O[C@@H]3CO)O[C@@H]2CO)[C@H](O)[C@@H](O)[C@@H]1N[C@H]1C=C(CO)[C@@H](O)[C@H](O)[C@H]1O (some centres undefined)    13.1 s
O=C1CN(/N=C/c2ccc([N+](=O)[O-])o2)C(=O)N1    12.3 s
OCCN1CCN(CCCN2c3ccccc3Sc3ccc(C(F)(F)F)cc32)CC1    11.7 s

Next compound, PT to be filled in.
Q. Any idea what its PT is? The compound is Cn1cc[nH]c1=S
A. 16.3 s
